Target: Rac GTPase-activating protein 1 (Homo sapiens, UniProt Q9H0H5)
Sequence (Q9H0H5 whole entry): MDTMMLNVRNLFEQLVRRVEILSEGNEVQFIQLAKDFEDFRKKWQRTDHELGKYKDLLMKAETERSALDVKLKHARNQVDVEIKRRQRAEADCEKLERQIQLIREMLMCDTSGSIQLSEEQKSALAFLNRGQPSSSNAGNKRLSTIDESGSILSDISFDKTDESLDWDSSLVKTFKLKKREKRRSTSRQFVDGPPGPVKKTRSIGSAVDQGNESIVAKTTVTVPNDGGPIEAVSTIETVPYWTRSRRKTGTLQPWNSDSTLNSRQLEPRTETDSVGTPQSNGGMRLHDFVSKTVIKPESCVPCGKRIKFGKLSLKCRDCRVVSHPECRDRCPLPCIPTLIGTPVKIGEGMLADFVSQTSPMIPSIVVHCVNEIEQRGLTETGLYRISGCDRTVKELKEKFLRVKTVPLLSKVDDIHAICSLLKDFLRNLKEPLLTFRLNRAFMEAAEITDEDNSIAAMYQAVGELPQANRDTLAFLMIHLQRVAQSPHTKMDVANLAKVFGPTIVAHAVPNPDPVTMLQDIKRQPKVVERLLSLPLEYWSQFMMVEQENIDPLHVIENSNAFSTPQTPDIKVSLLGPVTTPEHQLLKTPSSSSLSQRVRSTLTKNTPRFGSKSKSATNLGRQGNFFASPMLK
Experiment: blockers of MgcRacGAP-driven Rac1 GTP hydrolysis – biochemical, ADP Hunter fluorescence, primary and confirmatory, confirmation (AID 624330)
Format: functional
The source made the active and inactive calls. No rule for the calls is given here.
Entries and their measured IC50 follow.

>  <compound>
Cn1c(=O)c2nc(S)n(Cc3ccccc3)c2n(C)c1=O

>  <IC50>
19.5 µM (active)

$$$$
>  <compound>
C=CCN1C(=O)CS/C1=N/c1ccc(O)cc1

>  <IC50>
25.8 µM (active)

$$$$
>  <compound>
CCOC(=O)C1CCN(Cc2cccc(Oc3ccccc3)c2)CC1

>  <IC50>
342 µM (active)

$$$$
>  <compound>
CC1(C)CC2=Nc3ccccc3SC2=C(O)C1

>  <IC50>
22.1 µM (active)

$$$$
>  <compound>
C#CCOCCOCCOCCNc1nc(N2CCN(C(=O)[C@H](CCCCN)n3cc([C@@H](N)CC(C)C)nn3)CC2)nc(N2CCN(C(=O)[C@H](CCCCN)n3cc([C@@H](N)CC(C)C)nn3)CC2)n1

>  <IC50>
190 µM (active)

$$$$
>  <compound>
COc1ccc(C(=O)CCC(=O)Nc2cc(Cl)c(O)c(Cl)c2)cc1

>  <IC50>
118 µM (active)

$$$$
>  <compound>
COc1cc(-c2cc(-c3ccc(O)cc3)nc(N)c2C#N)ccc1O

>  <IC50>
34.7 µM (active)

$$$$
>  <compound>
Cc1ccc(O)c(/N=C/c2cc(Cc3ccccc3)cc([N+](=O)[O-])c2O)c1

>  <IC50>
37.8 µM (active)

$$$$
>  <compound>
O=C(N/N=C/c1ccc(O)cc1)c1csc2ccccc12

>  <IC50>
42.3 µM (active)

$$$$
>  <compound>
O=C(Oc1ccc2c(c1)OCO2)c1ccncc1

>  <IC50>
50.5 µM (active)

$$$$
>  <compound>
COc1cc(OC)c(C2Nc3cccc4cccc(c34)N2)c(OC)c1

>  <IC50>
65.2 µM (active)

$$$$
>  <compound>
COc1ccc(NC2CCCN(C(=O)CCN3Cc4ccccc4C3=O)C2)cc1 (stereo not given)

>  <IC50>
65.1 µM (active)

$$$$
>  <compound>
COc1cc(/C=N/NC(=O)c2cc(-c3c(C)nn(-c4ccccc4)c3C)[nH]n2)ccc1O

>  <IC50>
39.1 µM (active)

$$$$
>  <compound>
C(=N\Nc1nc2ccccc2[nH]1)/c1c[nH]c2ccccc12

>  <IC50>
35.8 µM (active)

$$$$
>  <compound>
Clc1ccc(CNc2ccc(N3CCN(Cc4ccccc4)CC3)cc2)cc1

>  <IC50>
41.4 µM (active)

$$$$
